The measured values listed here are drawn from patent US8623859B2.

Target desc: human B1 (Homo sapiens)
Sequence (P46663 whole entry): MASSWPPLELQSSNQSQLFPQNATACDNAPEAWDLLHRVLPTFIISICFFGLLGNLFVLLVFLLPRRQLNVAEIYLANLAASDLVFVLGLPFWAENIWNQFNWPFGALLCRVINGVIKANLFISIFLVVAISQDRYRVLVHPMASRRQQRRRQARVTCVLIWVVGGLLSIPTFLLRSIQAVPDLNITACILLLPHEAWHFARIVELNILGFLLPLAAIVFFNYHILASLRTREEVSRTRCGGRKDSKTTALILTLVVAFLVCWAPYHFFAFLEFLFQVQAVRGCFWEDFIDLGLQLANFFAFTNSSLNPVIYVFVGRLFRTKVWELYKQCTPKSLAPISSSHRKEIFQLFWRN
Assay: Calcium flux assay for Bradykinin B1 antagonist, CHO-K1 cell line expressing human B1
Condition description: CHO-K1 cells expressing human B1, agonist Lys-(Des-Arg)-Bradykinin, read-out: Potency (IC50 value against human B1)
Counter-ions that a name gives are not always drawn.
This listing pairs compounds with measured IC50.

[
  {
    "Compound": "COc1cc(C)c(S(=O)(=O)N(C)Cc2cc(C(=O)N(C)Cc3ccc(C4=NCC(C)(C)CN4)cc3)co2)c(C)c1",
    "Target desc": "human B1 (Homo sapiens)",
    "IC50": "100 to 1000 nM"
  },
  {
    "Compound": "COc1cc(C)c(S(=O)(=O)N(C)Cc2nnc(C(=O)N(C)Cc3ccc(CN4CCCC4)cc3)o2)c(C)c1 [Ex 268, trifluoroacetate]",
    "Target desc": "human B1 (Homo sapiens)",
    "IC50": "10 to 100 nM"
  },
  {
    "Compound": "COc1cc(C)c(S(=O)(=O)N(Cc2nc(C(=O)N3CC4CCN(C5CN6CCC5CC6)CC4C3)co2)C2CC2)c(C)c1 (stereo not shown) [Ex 207, trifluoroacetate]",
    "Target desc": "human B1 (Homo sapiens)",
    "IC50": "< 10 nM"
  },
  {
    "Compound": "COc1cc(C)c(S(=O)(=O)N(Cc2nnc(C(=O)N3CCN(CCCN4CCCC4)CC3)o2)C2CC2)c(C)c1",
    "Target desc": "human B1 (Homo sapiens)",
    "IC50": "< 10 nM"
  },
  {
    "Compound": "CCN(Cc1cc(C(=O)N(C)Cc2ccc(CN3CCCC3)cc2)co1)S(=O)(=O)c1c(Cl)cccc1Cl [Ex 121, trifluoroacetate]",
    "Target desc": "human B1 (Homo sapiens)",
    "IC50": "100 to 1000 nM"
  },
  {
    "Compound": "COc1cc(C)c(S(=O)(=O)N(C)Cc2cc(C(=O)N(C)Cc3nc(CN4CCCC4)cs3)co2)c(C)c1",
    "Target desc": "human B1 (Homo sapiens)",
    "IC50": "< 10 nM"
  }
]

Task item: Look up IC50: COc1cc(C)c(S(=O)(=O)N(C)Cc2cc(C(=O)NCc3ccc(CN4CCCCC4)cc3)co2)c(C)c1 [Ex 100, trifluoroacetate]
Reply: 100 to 1000 nM

* * *

Target desc: human B1 (Homo sapiens)
Assay: Calcium flux assay for Bradykinin B1 antagonist, CHO-K1 cell line expressing human B1
Condition description: CHO-K1 cells expressing human B1, agonist Lys-(Des-Arg)-Bradykinin, read-out: Potency (IC50 value against human B1)
Counter-ions that a name gives are not always drawn.
Experimental readout: IC50

Would you please look over these solved cases?
[
  {
    "Compound": "COc1cc(C)c(S(=O)(=O)N(Cc2nnc(C(=O)N3CCC(CCN4CCCC4)CC3)o2)C2CC2)c(C)c1",
    "Target desc": "human B1 (Homo sapiens)",
    "IC50": "< 10 nM"
  },
  {
    "Compound": "COc1cc(C)c(S(=O)(=O)N(C)Cc2cc(C(=O)N(C)Cc3ccc(CN4CCCC4)cc3)co2)c(C)c1",
    "Target desc": "human B1 (Homo sapiens)",
    "IC50": "10 to 100 nM"
  },
  {
    "Compound": "COc1cc(C)c(S(=O)(=O)N(C)Cc2cc(C(=O)N(C)Cc3ccc(CN4CCCC4)c(F)c3)co2)c(C)c1 [Ex 157, trifluoroacetate]",
    "Target desc": "human B1 (Homo sapiens)",
    "IC50": "10 to 100 nM"
  },
  {
    "Compound": "CN(CCc1ccc(C2=NCCN2)cc1)C(=O)c1coc(CN(C2CC2)S(=O)(=O)c2c(Cl)cccc2Cl)n1 [Ex 213, trifluoroacetate]",
    "Target desc": "human B1 (Homo sapiens)",
    "IC50": "100 to 1000 nM"
  },
  {
    "Compound": "COc1cc(C)c(S(=O)(=O)N(Cc2cc(C(=O)N3CCN(CC4CCN(C)CC4)CC3)co2)C2CC2)c(C)c1 [Ex 89]",
    "Target desc": "human B1 (Homo sapiens)",
    "IC50": "< 10 nM"
  },
  {
    "Compound": "COc1cc(C)c(S(=O)(=O)N(Cc2nc(C(=O)NCc3cccc(CN4CCCC4)c3)co2)C2CC2)c(C)c1",
    "Target desc": "human B1 (Homo sapiens)",
    "IC50": "< 10 nM"
  }
]

Task item: I am curious: what IC50 value has been reported for COc1cc(C)c(S(=O)(=O)N(C)Cc2cc(C(=O)N3CCN(C4CCN(C)CC4)CC3)co2)c(C)c1 ?
Reply: 100 to 1000 nM

Task item: Try CN(CCc1ccc(C2=NCCN2)cc1)C(=O)c1coc(CN(C)S(=O)(=O)c2c(Cl)cc(Br)cc2Cl)c1 next.
Reply: < 10 nM

Task item: Same read-out for COc1cc(C)c(S(=O)(=O)N(Cc2nc(C(=O)N3CCN(Cc4cccnc4)CC3)co2)C2CC2)c(C)c1 [Ex 163, trifluoroacetate] ?
Reply: < 10 nM

Task item: Same for COc1cc(C)c(S(=O)(=O)N(C)Cc2cc(C(=O)N3CCN(CCc4ccncc4)CC3)co2)c(C)c1
Reply: 100 to 1000 nM

* * *

Target desc: human B1 (Homo sapiens)
Assay: Calcium flux assay for Bradykinin B1 antagonist, CHO-K1 cell line expressing human B1
Condition description: CHO-K1 cells expressing human B1, agonist Lys-(Des-Arg)-Bradykinin, read-out: Potency (IC50 value against human B1)
pIC50: −log10 of the molar value. Where a name gives a salt, the structure may show the parent alone.
Experimental readout: pIC50

Worked examples, 3 molecules total:
[
  {
    "Molecule": "COc1cc(C)c(S(=O)(=O)N(C)Cc2nc(C(=O)N(C)Cc3ccc(CN4CCC(O)C4)cc3)co2)c(C)c1 (stereo not shown)",
    "Target desc": "human B1 (Homo sapiens)",
    "Value observed": "> 8.00"
  },
  {
    "Molecule": "COc1cc(C)c(S(=O)(=O)N(C)Cc2cc(C(=O)N(C)Cc3ccc(C4=NCCN4)cc3)co2)c(C)c1",
    "Target desc": "human B1 (Homo sapiens)",
    "Value observed": "> 8.00"
  },
  {
    "Molecule": "COc1cc(C)c(S(=O)(=O)N(C)Cc2cc(C(=O)N(C)Cc3ccc(C4=NCCCN4)cc3)co2)c(C)c1",
    "Target desc": "human B1 (Homo sapiens)",
    "Value observed": "7.00 to 8.00"
  }
]

The record that follows has no pIC50 shown yet.
Task item: Entry CCN1CCN(CCCNC(=O)c2coc(CN(C3CC3)S(=O)(=O)c3c(C)cc(OC)cc3C)n2)CC1 [Ex 242, trifluoroacetate] , system human B1 (Homo sapiens): what pIC50 was measured?
Reply: 7.00 to 8.00

* * *

Target desc: human B1 (Homo sapiens)
Assay: Calcium flux assay for Bradykinin B1 antagonist, CHO-K1 cell line expressing human B1
Condition description: CHO-K1 cells expressing human B1, agonist Lys-(Des-Arg)-Bradykinin, read-out: Potency (IC50 value against human B1)
Counter-ions that a name gives are not always drawn.
Measured IC50, listed per entry for reference.

The examples below pair each entry with its known result.
[
  {
    "Compound": "COc1cc(C)c(S(=O)(=O)N(C)Cc2cc(C(=O)NCc3cc(F)cc(CN4CCCC4)c3)co2)c(C)c1 [Ex 155, trifluoroacetate]",
    "Experimental readout": "IC50",
    "Value observed": "0.01 to 0.1 µM"
  },
  {
    "Compound": "COc1cc(C)c(S(=O)(=O)N(Cc2nc(C(=O)N3CCN(Cc4ccnc(N5CCCC5)c4)CC3)co2)C2CC2)c(C)c1",
    "Experimental readout": "IC50",
    "Value observed": "0.1 to 1 µM"
  },
  {
    "Compound": "CN(CCc1ccc(C2=NCCN2)cc1)C(=O)c1coc(CN(C)S(=O)(=O)c2ccc(Cl)cc2Cl)c1",
    "Experimental readout": "IC50",
    "Value observed": "0.1 to 1 µM"
  }
]

Moving on to the next compound.
Task item: Given the compound COc1cc(C)c(S(=O)(=O)N(Cc2cnc(C(=O)N3CCN(CC4CCN(C)CC4)CC3)o2)C2CC2)c(C)c1 , what is its reported IC50?
Reply: 0.1 to 1 µM

* * *

pIC50 for assorted compounds
Target desc: human B1 (Homo sapiens)
Assay: Calcium flux assay for Bradykinin B1 antagonist, CHO-K1 cell line expressing human B1
Condition description: CHO-K1 cells expressing human B1, agonist Lys-(Des-Arg)-Bradykinin, read-out: Potency (IC50 value against human B1)
pIC50: −log10 of the molar value. Counter-ions that a name gives are not always drawn.

[
  {
    "Compound": "CN(Cc1ccc(C2=NCCN2)cc1)C(=O)c1coc(CN(C2CC2)S(=O)(=O)c2c(Cl)cc(Br)cc2Cl)c1 [Ex 123, trifluoroacetate]",
    "Target desc": "human B1 (Homo sapiens)",
    "Experimental readout": "pIC50",
    "Value observed": "> 8.00"
  },
  {
    "Compound": "COc1cc(C)c(S(=O)(=O)N(C)Cc2nnc(C(=O)NCCc3ccc(C4=NCCN4)cc3)o2)c(C)c1 [Ex 269, trifluoroacetate]",
    "Target desc": "human B1 (Homo sapiens)",
    "Experimental readout": "pIC50",
    "Value observed": "> 8.00"
  },
  {
    "Compound": "COc1cc(C)c(S(=O)(=O)N(Cc2nc(C(=O)N3CCC(O)(CN4CCN(C)CC4)CC3)co2)C2CC2)c(C)c1 [Ex 223, trifluoroacetate]",
    "Target desc": "human B1 (Homo sapiens)",
    "Experimental readout": "pIC50",
    "Value observed": "> 8.00"
  },
  {
    "Compound": "COc1cc(C)c(S(=O)(=O)N(Cc2cc(C(=O)N3CCN(CCN4CCCC4)CC3)co2)C2CC2)c(C)c1 [Ex 112, trifluoroacetate]",
    "Target desc": "human B1 (Homo sapiens)",
    "Experimental readout": "pIC50",
    "Value observed": "7.00 to 8.00"
  }
]

Task item: Give its pIC50 value. Item: COc1cc(C)c(S(=O)(=O)N(C)Cc2cc(C(=O)NCc3ccc(C4=NCC(C)(C)N4)cc3)co2)c(C)c1 [Ex 93, trifluoroacetate]
Reply: 7.00 to 8.00

Task item: Same again, this time with CN(Cc1ccc(C2=NCCN2)cc1)C(=O)c1coc(CN(C)S(=O)(=O)c2ccc(Cl)cc2Cl)c1
Reply: > 8.00

Task item: One more compound: COc1cc(C)c(S(=O)(=O)N(C)Cc2nnc(C(=O)N3CCN(CCN4CCCC4)CC3)s2)c(C)c1
Reply: 6.00 to 7.00

Task item: Same thing, different compound: COc1cc(C)c(S(=O)(=O)N(C)Cc2cc(C(=O)NCCc3ccc(C4=NCCN4)cc3)co2)c(CO)c1 [Ex 86, trifluoroacetate]
Reply: 6.00 to 7.00

Task item: One more compound: COc1cc(C)c(S(=O)(=O)N(C)Cc2cc(C(=O)N(C)Cc3cc(CN4CCCC4)ccc3F)co2)c(C)c1 [Ex 156, trifluoroacetate]
Reply: 7.00 to 8.00

Task item: Do the same for COc1cc(C)c(S(=O)(=O)N(Cc2nc(C(=O)N3CCN(Cc4ccc(N5CCCC5)nc4)CC3)co2)C2CC2)c(C)c1 [Ex 237, trifluoroacetate] please
Reply: > 8.00

Task item: And for COc1cc(C)c(S(=O)(=O)N(Cc2nc(C(=O)N3CCN(Cc4ccccn4)CC3)co2)C2CC2)c(C)c1 [Ex 227, trifluoroacetate] ?
Reply: 6.00 to 7.00

Task item: Can you handle COc1cc(C)c(S(=O)(=O)N(C)Cc2cc(C(=O)N(C)Cc3ccc(-c4nccn4C)cc3)co2)c(C)c1 next?
Reply: 6.00 to 7.00

Task item: Cool, now COc1cc(C)c(S(=O)(=O)N(Cc2nc(C(=O)N3CC4CN(Cc5ccc(OC)nc5)CC4C3)co2)C2CC2)c(C)c1 (stereo not shown) [Ex 209, trifluoroacetate]
Reply: 6.00 to 7.00
